Hey, just so you know, these numbers are from paper PMC11557314.

Quick reference: EC50 of the listed items.
- target.or.test.system: hKOPr (Homo sapiens, UniProt P41145)
- Sequence (P41145 whole entry): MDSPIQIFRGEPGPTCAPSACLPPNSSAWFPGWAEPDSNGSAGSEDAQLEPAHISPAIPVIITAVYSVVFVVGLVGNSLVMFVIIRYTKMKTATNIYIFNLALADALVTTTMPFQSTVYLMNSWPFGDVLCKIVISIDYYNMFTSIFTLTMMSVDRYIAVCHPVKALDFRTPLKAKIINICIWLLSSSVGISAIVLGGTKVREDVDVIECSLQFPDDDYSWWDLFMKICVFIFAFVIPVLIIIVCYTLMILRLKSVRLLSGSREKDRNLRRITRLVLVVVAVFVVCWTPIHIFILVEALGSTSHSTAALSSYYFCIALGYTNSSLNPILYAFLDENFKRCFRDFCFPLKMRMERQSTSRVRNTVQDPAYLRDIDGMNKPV
- test.details: biochemical
- test.settings: read-out: hKOPr EC50, stimulation of [35S]GTPγS binding
Where no end group is shown, it is not given here.
Give just the numeric value; nM need not be written.

YGAFLRRAFKVVT [DynB_G3A/Q8A]
14.6

For reference, reported EC50 for YGGFSRRQFKVVT [DynB_L5S] stands at 17.7

* * *

- target.or.test.system: hKOPr (Homo sapiens, UniProt P41145)
- test.details: biochemical
- test.settings: read-out: Efficacy at hKOPr Emax
Where no end group is shown, it is not given here.
Each entry below carries its recorded Emax.
Kindly answer with a numeric value in %, unit omitted.

YGMFLRRQFKVVT [DynB_G3M]
54.5
YGGFLRRAFKVVT [DynB_Q8A]
125
YGAFLRRHFKVVT [DynB_G3A/Q8H]
74.9
FGGFLRRQFKVVT [DynB_Y1F]
110
YGAFSRRQFKVVT [DynB_G3A/L5S]
92.5

Query YGGFLRRQFAVVT [DynB_K10 A] yields Emax of 132

Record summary for YGMFSRRQFKVVT [DynB_G3M/L5S] : reported Emax = 52.6

Entry YGAFLRRQFKVVT [DynB_G3A] ; Emax = 83.4

GET /value?item= YGAFLRRAFKVVT [DynB_G3A/Q8A] &field=Emax returns 88.6

Documented Emax of YGAFLRRQFAVVT [DynB_G3A/K10 A] : 84

Per the record, YGGFLRRHFKVVT [DynB_Q8H] has Emax of 112

Looking up YGGFSRRQFKVVT [DynB_L5S] , I found its Emax recorded as 99.1

Lab note: YGMFLRRHFKVVT [DynB_G3M/Q8H] gave Emax of 42.1

* * *

- target.or.test.system: hMOPr (Homo sapiens)
- Sequence (P35372 whole entry): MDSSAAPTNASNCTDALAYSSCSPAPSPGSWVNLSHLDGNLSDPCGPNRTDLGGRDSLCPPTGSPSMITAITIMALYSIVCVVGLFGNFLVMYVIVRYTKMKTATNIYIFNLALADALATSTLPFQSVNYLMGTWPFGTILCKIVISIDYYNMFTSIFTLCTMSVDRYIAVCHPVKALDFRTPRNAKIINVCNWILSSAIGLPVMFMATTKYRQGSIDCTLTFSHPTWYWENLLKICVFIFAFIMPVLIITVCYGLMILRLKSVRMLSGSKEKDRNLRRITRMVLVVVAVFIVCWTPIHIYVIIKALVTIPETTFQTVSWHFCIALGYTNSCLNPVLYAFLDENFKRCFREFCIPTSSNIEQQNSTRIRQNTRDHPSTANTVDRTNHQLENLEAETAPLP
- test.details: Competitive radio binding assay with [3H]-DAMGO on hMOPr-CHO cell membranes
- test.settings: read-out: Ki hMOPr; [3H]-DAMGO 1 nM, 60 min 25°C; mean ± SEM
Where no end group is shown, it is not given here.
Could you mark each record 1 if its Ki falls strictly under 90 nM, and 0 if it equals or exceeds it?

# count of solved cases: 2
YGAFSRRQFKVVT [DynB_G3A/L5S]
0
YGAFLRRHFKVVT [DynB_G3A/Q8H]
1

Prompt line: Quick check: Ki of YGGFSRRQFKVVT [DynB_L5S] under 90 nM?
Response line: 1

Prompt line: Consider YGMFLRRHFKVVT [DynB_G3M/Q8H] . Does its Ki lie strictly below 90 nM?
Response line: 0

Prompt line: Is 90 nM strictly greater than the sequence's reported Ki? sequence: YGAFLRRQFKVVT [DynB_G3A]
Response line: 1

Prompt line: In plain terms, does YGGFLRRHFKVVT [DynB_Q8H] come in under 90 nM for Ki?
Response line: 1

* * *

- target.or.test.system: hDOPr (Homo sapiens, UniProt P41143)
- Sequence (P41143 whole entry): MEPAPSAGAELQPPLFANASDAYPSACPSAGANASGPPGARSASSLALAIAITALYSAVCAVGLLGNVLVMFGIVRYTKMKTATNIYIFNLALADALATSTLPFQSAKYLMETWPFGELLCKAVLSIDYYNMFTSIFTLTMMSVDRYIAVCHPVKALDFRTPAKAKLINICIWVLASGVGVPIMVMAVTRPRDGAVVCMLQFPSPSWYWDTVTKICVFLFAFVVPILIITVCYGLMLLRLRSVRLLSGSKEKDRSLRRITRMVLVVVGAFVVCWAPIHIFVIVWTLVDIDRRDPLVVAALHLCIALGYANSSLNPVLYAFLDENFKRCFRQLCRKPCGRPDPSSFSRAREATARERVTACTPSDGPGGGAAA
- test.details: Competitive radio binding assay with [3H]-diprenorphine on hDOPr-CHO cell membranes
- test.settings: read-out: Ki hDOPr; [3H]-diprenorphine 1 nM, 60 min 25°C; mean ± SEM
pKi: −log10 of the molar value. Where no end group is shown, it is not given here.
Respond with yes (1) for pKi values of 6 and above, no (0) for values below.

YGMFSRRQFKVVT [DynB_G3M/L5S]
no (0)
YGMFLRRHFKVVT [DynB_G3M/Q8H]
yes (1)
FGGFLRRQFKVVT [DynB_Y1F]
no (0)

Prompt line: Hello, I need to know if YGAFLRRHFKVVT [DynB_G3A/Q8H] has measured pKi not below 6. Thanks!
Response line: yes (1)

Prompt line: Tell me whether pKi is at least 6 here: YGMFLRRQFKVVT [DynB_G3M]
Response line: yes (1)

Prompt line: Reported pKi reaches at least 6 for YGGFLRRHFKVVT [DynB_Q8H] ?
Response line: yes (1)

Prompt line: Dear colleague, could you confirm whether YGGFSRRQFKVVT [DynB_L5S] has pKi at or above 6?
Response line: yes (1)

Prompt line: Is pKi at least 6? Consider YGAFLRRQFKVVT [DynB_G3A]
Response line: yes (1)

Prompt line: Given YGAFLRRQFAVVT [DynB_G3A/K10 A] , state whether its pKi is at least 6.
Response line: yes (1)

Prompt line: Is the recorded value of pKi equal to or greater than 6 for this sequence? YGAFLRRAFKVVT [DynB_G3A/Q8A]
Response line: yes (1)

Prompt line: State whether the measured pKi reaches 6, counting equality as reaching it, for YGAFSRRQFKVVT [DynB_G3A/L5S]
Response line: no (0)
